Test: ultracentrifuge free-drug test (drug speciation)
Format: physicochemical
Details: pH 6.5, fassgf or other biorelevant; FIG. 2 speciation data from the dissolution test
endpointName: solubility

Query: Returns the measured solubility for the input compound. Input: COc1cc(F)cc([C@@H](CO)NC(=O)[C@@H](C)N2Cc3ccc(-c4nc(NC5CCOCC5)ncc4Cl)cc3C2=O)c1
Result: ~15 µg/mL

Source listed as patent US20240415835A1.
